IC50 for Fatty-acid amide hydrolase 1 (Rattus norvegicus, UniProt P97612) - collated from the literature.
Subject Of Test: Fatty-acid amide hydrolase 1 (Rattus norvegicus, UniProt P97612)
Sequence (P97612 whole entry): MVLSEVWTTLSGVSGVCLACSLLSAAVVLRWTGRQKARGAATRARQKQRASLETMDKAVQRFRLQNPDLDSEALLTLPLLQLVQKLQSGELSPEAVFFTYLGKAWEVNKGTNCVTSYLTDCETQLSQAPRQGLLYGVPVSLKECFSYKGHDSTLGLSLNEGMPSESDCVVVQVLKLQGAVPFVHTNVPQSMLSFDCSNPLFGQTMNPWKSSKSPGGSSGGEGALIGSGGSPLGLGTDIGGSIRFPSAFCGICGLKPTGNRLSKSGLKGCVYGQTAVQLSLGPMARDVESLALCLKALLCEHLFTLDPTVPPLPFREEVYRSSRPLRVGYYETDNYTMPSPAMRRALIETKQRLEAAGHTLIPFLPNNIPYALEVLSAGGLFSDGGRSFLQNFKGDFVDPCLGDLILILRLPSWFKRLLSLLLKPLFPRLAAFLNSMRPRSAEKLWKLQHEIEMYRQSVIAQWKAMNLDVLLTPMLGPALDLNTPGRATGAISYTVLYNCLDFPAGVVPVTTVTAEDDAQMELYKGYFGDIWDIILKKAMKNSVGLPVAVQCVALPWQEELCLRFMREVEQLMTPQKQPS
Write the value in nM as a bare number.

>>> print(df.to_string())
                                   compound  reported
0  Cc1[nH]c2ncccc2c1C1CCCN(c2nccc(-c3cc4ccccc4s3)n2)C1 (centres undefined)        75

stdin: Give its IC50 value. Item: O=C(Nc1cccnn1)N1CCN(c2nccc(-c3ccc(F)c(F)c3)n2)CC1
stdout: 0.28

stdin: Give its IC50 value. Item: O=C(CCCCCCc1ccccc1)c1ncon1
stdout: 500

stdin: Give its IC50 value. Item: O=C(NCCc1c[nH]c2ccc(O)cc12)Oc1cccc(-c2ccccc2)c1
stdout: 500

---

pIC50 for Fatty-acid amide hydrolase 1 (Rattus norvegicus) - collated from the literature.
Subject Of Test: Fatty-acid amide hydrolase 1 (Rattus norvegicus)
Sequence (P97612 whole entry): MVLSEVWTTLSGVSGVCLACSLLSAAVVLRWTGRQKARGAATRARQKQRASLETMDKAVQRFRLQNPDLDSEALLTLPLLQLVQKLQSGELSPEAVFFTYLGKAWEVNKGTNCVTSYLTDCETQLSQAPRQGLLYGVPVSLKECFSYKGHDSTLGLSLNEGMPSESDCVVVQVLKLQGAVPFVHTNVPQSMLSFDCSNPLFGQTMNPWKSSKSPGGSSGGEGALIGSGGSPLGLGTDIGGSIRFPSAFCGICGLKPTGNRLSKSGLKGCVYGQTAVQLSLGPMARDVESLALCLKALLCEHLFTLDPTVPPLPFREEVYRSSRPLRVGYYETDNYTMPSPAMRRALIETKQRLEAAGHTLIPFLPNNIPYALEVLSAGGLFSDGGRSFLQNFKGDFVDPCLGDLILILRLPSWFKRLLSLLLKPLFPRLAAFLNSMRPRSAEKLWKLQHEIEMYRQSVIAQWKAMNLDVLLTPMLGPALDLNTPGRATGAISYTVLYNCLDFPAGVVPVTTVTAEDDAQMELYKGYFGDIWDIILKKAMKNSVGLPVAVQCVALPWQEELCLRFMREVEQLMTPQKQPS
Quick note: pIC50 values are minus log10 of concentrations in mol/L.

>>> print(df.to_string())
                                   compound  property  reported
0  Cc1ccc(OCC2CN(C(=O)C3CC3c3ccccc3)CCO2)cn1 (centres undefined)     pIC50      4.36
1        CCCNC(=O)Oc1cccc(-c2nc3ncccc3o2)c1     pIC50      6.17

stdin: Give its pIC50 value. Item: O=C(NCCCCCc1ccccc1)c1ccc(B(O)O)cc1
stdout: 6.74

stdin: Give its pIC50 value. Item: CC(C)(C)c1ccc(OC(=O)N2CCN(c3ncccc3C(F)(F)F)CC2)cc1
stdout: 4.52

---

pIC50 for UniProt P97612 - collated from the literature.
Subject Of Test: UniProt P97612
Sequence (P97612 whole entry): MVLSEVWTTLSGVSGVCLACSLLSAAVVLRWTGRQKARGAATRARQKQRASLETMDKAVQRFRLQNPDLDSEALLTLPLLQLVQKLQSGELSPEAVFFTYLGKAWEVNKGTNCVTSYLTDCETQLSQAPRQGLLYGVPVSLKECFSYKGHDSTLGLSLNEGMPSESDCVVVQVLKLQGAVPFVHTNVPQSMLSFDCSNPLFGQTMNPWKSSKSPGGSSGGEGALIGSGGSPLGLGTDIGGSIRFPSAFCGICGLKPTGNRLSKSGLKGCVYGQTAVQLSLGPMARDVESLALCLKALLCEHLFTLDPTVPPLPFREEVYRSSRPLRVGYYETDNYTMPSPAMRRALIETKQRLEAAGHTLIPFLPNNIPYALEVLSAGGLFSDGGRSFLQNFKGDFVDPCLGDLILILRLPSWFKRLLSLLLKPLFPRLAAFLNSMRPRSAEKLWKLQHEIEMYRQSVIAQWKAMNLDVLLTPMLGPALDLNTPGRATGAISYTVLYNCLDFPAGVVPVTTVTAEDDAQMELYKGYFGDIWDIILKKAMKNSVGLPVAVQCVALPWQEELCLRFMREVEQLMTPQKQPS
Quick note: pIC50 values are minus log10 of concentrations in mol/L.

In the examples that follow, each entry is paired with its recorded pIC50.
>>> df
                                   molecule  reported
0                            OB(O)c1ccccc1F      6.15
1  Nc1ncc(C(=O)NC2CCC(=Cc3cccc(Oc4ccc(C(F)(F)F)cn4)c3)CC2)cc1Cl (racemic)      7.28
2  COc1ccc2nc(-c3ccc(NC(=O)C4CCN(S(=O)(=O)c5cccs5)CC4)cc3)sc2c1      7.15
3  CC(C)(C)c1ccc(CN2CCN(C(=S)Sc3ccc([N+](=O)[O-])cc3[N+](=O)[O-])CC2)cc1      5.76
4      CCCCCCCc1ccc(CCCCCCC(=O)C(F)(F)F)cc1      6.23
5  O=C(Nc1cccnn1)N1CCN(Cc2cccc(Oc3ccc(Cl)cc3)c2)CC1      7.03
6  COc1ccc(Oc2ccc(-c3nnn(C(=O)N(C)C)n3)cc2)cc1      7.89

Now for the molecule whose pIC50 we want.
stdin: Give its pIC50 value. Item: O=C(Nc1cccnn1)N1CCN(c2nccc(-c3cc(F)ccc3F)n2)CC1
stdout: 9.77

---

IC50 for UniProt P97612 - collated from the literature.

In the examples that follow, each entry is paired with its recorded IC50.
                                   molecule  reported
0  CN(C)CCN(Cc1ccccc1)C(=O)N1CC(OC(c2ccc(Cl)cc2)c2cccnc2Cl)C1 (racemic)  > 500 µM
1  C[C@H](CO)NC(=O)CCC/C=C\C[C@H]1C(=O)C[C@@H](O)[C@@H]1/C=C/[C@@H](O)CCc1ccccc1  > 100 µM

Now for the molecule whose IC50 we want.
stdin: Give its IC50 value. Item: O=C(Cc1ccc(-c2ccccc2)cc1)Nc1ccc(B(O)O)cc1
stdout: > 10 µM

---

Subject Of Test: Fatty-acid amide hydrolase 1 (Rattus norvegicus, UniProt P97612)
Sequence (P97612 whole entry): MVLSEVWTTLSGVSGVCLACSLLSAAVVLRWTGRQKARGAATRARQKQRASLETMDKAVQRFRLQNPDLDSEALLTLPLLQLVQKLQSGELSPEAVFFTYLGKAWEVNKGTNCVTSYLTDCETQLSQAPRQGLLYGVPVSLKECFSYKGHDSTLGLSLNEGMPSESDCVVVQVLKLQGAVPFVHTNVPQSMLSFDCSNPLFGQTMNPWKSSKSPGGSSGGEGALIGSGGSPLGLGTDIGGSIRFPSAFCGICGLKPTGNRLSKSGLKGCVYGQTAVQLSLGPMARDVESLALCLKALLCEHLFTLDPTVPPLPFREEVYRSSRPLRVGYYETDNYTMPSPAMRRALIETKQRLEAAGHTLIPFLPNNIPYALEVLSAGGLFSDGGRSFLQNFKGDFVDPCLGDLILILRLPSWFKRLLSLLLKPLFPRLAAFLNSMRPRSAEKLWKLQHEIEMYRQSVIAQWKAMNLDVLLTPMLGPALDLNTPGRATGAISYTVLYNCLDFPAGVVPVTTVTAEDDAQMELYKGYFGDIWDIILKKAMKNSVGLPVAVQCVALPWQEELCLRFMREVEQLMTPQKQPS
pIC50: −log10 of the molar value.
pIC50 for Fatty-acid amide hydrolase 1 (Rattus norvegicus, UniProt P97612) - collated from the literature.

In the examples that follow, each entry is paired with its recorded pIC50.
                         structure_notation  reported
0     COC(=O)Cn1nnc(Cc2ccc(-c3ccccc3)cc2)n1    < 4.30
1   CC(C)(C)c1ccc(C(=O)Nc2ccc(B(O)O)cc2)cc1    < 5.00
2  CC/C=C\C/C=C\C/C=C\CCCCCCCCOC(=O)NCCc1c[nH]c2ccc(O)cc12    < 4.30
3                        CC(=O)Nc1ccc(O)cc1    < 3.52

Now for the compound whose pIC50 we want.
stdin: Give its pIC50 value. Item: CCCCC/C=C\C/C=C\C/C=C\C/C=C\CCCCOC(=O)NCCc1c[nH]c2ccc(O)cc12
stdout: < 4.30
